target: human MAT2A (Homo sapiens, UniProt P31153); assay: Inhibition of MAT2A by PNP or PPNP; conditions: toward ATP; non-competitive
Sequence (P31153 whole entry): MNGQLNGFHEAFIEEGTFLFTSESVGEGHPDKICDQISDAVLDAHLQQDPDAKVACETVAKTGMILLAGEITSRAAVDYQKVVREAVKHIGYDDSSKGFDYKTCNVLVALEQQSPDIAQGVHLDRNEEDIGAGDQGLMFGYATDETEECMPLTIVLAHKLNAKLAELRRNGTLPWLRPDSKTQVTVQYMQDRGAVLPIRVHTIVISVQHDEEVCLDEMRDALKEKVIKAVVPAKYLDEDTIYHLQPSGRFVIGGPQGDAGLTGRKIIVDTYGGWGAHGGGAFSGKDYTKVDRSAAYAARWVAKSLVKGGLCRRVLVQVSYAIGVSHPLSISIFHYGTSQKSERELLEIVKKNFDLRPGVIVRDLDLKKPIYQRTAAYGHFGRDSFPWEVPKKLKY

{"columns": ["molecule", "Ki [µM]"],
 "data": [
  ["O=P(O)(O)NP(=O)(O)OP(=O)(O)O [PPNP, Imidotriphosphate]", 0.86]
]}

---

biological target: human MAT2A (Homo sapiens, UniProt P31153); assay: Product inhibition of MAT2A by AdoMet; type: biochemical; details: with respect to methionine, non-competitive
pKi: −log10 of the molar value.

{"columns": ["molecule", "pKi"],
 "data": [
  ["C[S+](CC[C@H](N)C(=O)[O-])C[C@H]1O[C@@H](n2cnc3c(N)ncnc32)[C@H](O)[C@@H]1O (stereo partly shown)", 4.09]
]}

---

molecular target: human MAT2A (Homo sapiens, UniProt P31153); test: Inhibition of MAT2A by PNP or PPNP; conditions: Ki, toward ATP; non-competitive
pKi: −log10 of the molar value.
observation.type: pKi

{"columns": ["compound", "measurement.target", "observation.type", "quantitative.readout"],
 "data": [
  ["O=P(O)(O)NP(=O)(O)O [Imidodiphosphate]", "human MAT2A (Homo sapiens, UniProt P31153)", "pKi", 4.85]
]}

---

target: human MAT2A (Homo sapiens); experiment: Inhibition of MAT2A by ATP and triphosphate analogues; format: biochemical; conditions: 1 mM methionine and 200 μM ATP; NO = no significant inhibition observed

{"columns": ["molecule", "Ki"],
 "data": [
  ["O=P(O)(O)NP(=O)(O)NP(=O)(O)O [PNPNP, (α–β, β–γ)-diimido triphosphate]", "120 nM"]
]}

---

target: human MAT2A (Homo sapiens); test: Inhibition of MAT2A by ATP and triphosphate analogues; type: biochemical; conditions: read-out: Ki (inhibitor)

{"columns": ["compound", "result.unit", "Ki"],
 "data": [
  ["O=P(O)(O)NP(=O)(O)NP(=O)(O)O [PNPNP, (α–β, β–γ)-diimido triphosphate]", "nM", 115]
]}
